Measured Ki values are reported for all entries that follow.
Biological target: Son of Sevenless (SOS) (Homo sapiens, UniProt Q07889)
Sequence (Q07889 564-1049 limits assumed): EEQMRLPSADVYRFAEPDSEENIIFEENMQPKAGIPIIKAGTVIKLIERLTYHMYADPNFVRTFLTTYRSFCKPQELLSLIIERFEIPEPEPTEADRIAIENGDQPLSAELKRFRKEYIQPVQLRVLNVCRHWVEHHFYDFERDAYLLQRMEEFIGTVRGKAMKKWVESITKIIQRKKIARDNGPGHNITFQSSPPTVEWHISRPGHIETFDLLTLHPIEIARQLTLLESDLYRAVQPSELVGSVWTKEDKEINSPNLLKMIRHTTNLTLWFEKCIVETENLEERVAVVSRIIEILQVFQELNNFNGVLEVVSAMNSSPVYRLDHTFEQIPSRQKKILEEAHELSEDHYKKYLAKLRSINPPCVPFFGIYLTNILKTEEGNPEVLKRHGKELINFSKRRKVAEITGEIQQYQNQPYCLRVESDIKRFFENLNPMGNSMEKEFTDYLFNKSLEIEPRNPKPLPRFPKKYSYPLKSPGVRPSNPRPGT
Counter-ions that a name gives are not always drawn.

compound="CC(C)Cn1nccc1-c1cc(Cl)cc2c1nc(N1CCNCC1)n2Cc1ccc(F)c(Cl)c1 [Example 174, trifluoroacetate]" target_or_system="Son of Sevenless (SOS) (Homo sapiens, UniProt Q07889)" quantity_kind=Ki assay_result="< 500 nM"
compound="Fc1ccc(Cn2c(N3CCNCC3)nc3ccc(Br)cc32)cc1Cl [Example 63, trifluoroacetate]" target_or_system="Son of Sevenless (SOS) (Homo sapiens, UniProt Q07889)" quantity_kind=Ki assay_result="500 to 1000 nM"
compound="Cc1cc2nc(N3CCNCC3)n(Cc3cc(C)c(F)c(C)c3)c2cc1C [Example 41, trifluoroacetate]" target_or_system="Son of Sevenless (SOS) (Homo sapiens, UniProt Q07889)" quantity_kind=Ki assay_result="> 5000 nM"
compound="CN(CCO)Cc1cc(Cl)cc2c1nc(N1CCNCC1)n2Cc1ccc(F)c(Cl)c1 [Example 134, trifluoroacetate]" target_or_system="Son of Sevenless (SOS) (Homo sapiens, UniProt Q07889)" quantity_kind=Ki assay_result="500 to 1000 nM"
compound="Cc1cc(C2NCCc3c2[nH]c2ccccc32)c2nc(N3CCNCC3)n(Cc3cc(C)c(F)c(C)c3)c2c1 (stereo not shown) [Example 139, trifluoroacetate]" target_or_system="Son of Sevenless (SOS) (Homo sapiens, UniProt Q07889)" quantity_kind=Ki assay_result="1000 to 5000 nM"

// lookup Ki | system=Son of Sevenless (SOS) (Homo sapiens, UniProt Q07889) | key= Fc1ccc(Cn2c(C3CCNCC3)nc3ccccc32)cc1 [Example 56, trifluoroacetate]
> 5000 nM

Observed Ki on Son of Sevenless (SOS) (Homo sapiens, UniProt Q07889) for Cc1cc(OCCN2CCN(C)CC2)c2nc(NCCN)n(Cc3cc(C)c(F)c(C)c3)c2c1 , please.
500 to 1000 nM

###

Biological target: Ras GEF SOS (Son of Sevenless) (Homo sapiens, UniProt Q07889)
Assay: SOS-mediated nucleotide exchange on Ras (BODIPY-GDP fluorescence)
Settings: SOS-mediated exchange of BODIPY-GDP for GTP on Ras
pEC50: −log10 of the molar value. Structures can show the parent of a compound that is named as a salt.
Quantity Kind: pEC50

Dear colleague, I am looking for the recorded pEC50 of the following compound: Cc1cc(OCC2CCNCC2)c2nc(NCCN)n(Cc3cc(C)c(F)c(C)c3)c2c1 [Example 330]
> 6.00

Please give the measured pEC50 for this compound: Cc1cc(NCCN2CCOCC2)c2nc(N3CCNCC3)n(Cc3cc(C)c(F)c(C)c3)c2c1 [Example 193, trifluoroacetate]
5.30 to 6.00

Quick one: pEC50 for Cc1cc(Cn2c(N3CC(CN)C3)nc3ccc(OC(C)C(F)(F)F)nc32)ccc1F (stereo not shown) [Example 259] ?
4.52 to 5.30

Could you share which pEC50 value was measured for COc1ccc(-c2cccc3c2nc(N2CCNCC2)n3Cc2ccc(F)c(Cl)c2)cc1OC [Example 88] ?
5.30 to 6.00

Form field: reported pEC50 of C=C[C@H](N)c1cc(C)cc2c1nc(N1CCNCC1)n2Cc1cc(C)c(F)c(C)c1 [Example 162, trifluoroacetate]
5.30 to 6.00

// query pEC50 value for entry Cc1cc2c(nc(N3CCNCC3)n2Cc2ccc(F)c(C)c2)c(-c2cccnc2C)n1 [Example 227]
5.30 to 6.00

src = patent US10501421B1
